Provenance of the data: the supplement of paper PMC11061612

In this section we review reported Bliss excess values for a set of molecules.
tested on: Ca9-22 (Head and Neck Carcinoma); assay: Bliss excess, mean over the matrix (fraction); higher = more synergy

- MOLECULE: "COc1nnc2ccc(N3CCC(c4ccc(OCCN5CCN(C)C(=O)[C@H]5C)cc4)CC3)nn12 [AZD5153] + CCN(CCO)CCCOc1ccc2c(Nc3cc(CC(=O)Nc4cccc(F)c4)[nH]n3)ncnc2c1 [AZD2811] (first compound max 1 µM, 7x7, partner max 1 µM)"
  Bliss excess: -0.023
- MOLECULE: "CC1(C)CCC(CN2CCN(c3ccc(C(=O)NS(=O)(=O)c4ccc(NCC5CCOCC5)c([N+](=O)[O-])c4)c(Oc4cnc5[nH]ccc5c4)c3)CC2)=C(c2ccc(Cl)cc2)C1 [Venetoclax] + COc1cc(Nc2ncc3c(n2)-c2ccc(Cl)cc2C(c2c(F)cccc2OC)=NC3)ccc1C(=O)O [Alisertib] (first compound max 1 µM, 7x7, partner max 10 µM)"
  Bliss excess: -0.0147
- MOLECULE: "CC1(C)CCC(CN2CCN(c3ccc(C(=O)NS(=O)(=O)c4ccc(NCC5CCOCC5)c([N+](=O)[O-])c4)c(Oc4cnc5[nH]ccc5c4)c3)CC2)=C(c2ccc(Cl)cc2)C1 [Venetoclax] + CN(C)CCCOc1ccc(-c2ccc3ncc4c(c3c2)n(C2CCOCC2)c(=O)n4C)cn1 [AZD0156] (first compound max 1 µM, 7x7, partner max 1 µM)"
  Bliss excess: 0.0234

###

test system: NCI-H727 (Other Solid Carcinomas); test: combination Emax (second highest fraction inhibited in the dose matrix, 72 h); higher = more inhibition; extreme values may be limits of the assay
Listing of entries alongside the reported combination Emax.

- COMPOUND: "C=CCn1c(=O)c2cnc(Nc3ccc(N4CCN(C)CC4)cc3)nc2n1-c1cccc(C(C)(C)O)n1 [AZD1775] + CCc1c2c(nc3ccc(O)cc13)-c1cc3c(c(=O)n1C2)COC(=O)[C@]3(O)CC [SN-38] (first compound max 1 µM, partner max 0.3 µM)"
  combination Emax: 0.514
- COMPOUND: "N#Cc1cnc(Nc2cc(NC[C@H]3CNCCO3)c(C(F)(F)F)cn2)cn1 [SRA737] + O=c1[nH]cc(F)c(=O)[nH]1 [5-Fluorouracil] (first compound max 10 µM, 7x7, partner max 20 µM)"
  combination Emax: 0.428
- COMPOUND: "COc1nnc2ccc(N3CCC(c4ccc(OCCN5CCN(C)C(=O)[C@H]5C)cc4)CC3)nn12 [AZD5153] + Cn1cnc2c(F)c(Nc3ccc(Br)cc3Cl)c(C(=O)NOCCO)cc21 [Selumetinib] (first compound max 1 µM, 7x7, partner max 10 µM)"
  combination Emax: 0.678
- COMPOUND: "C[C@@H](c1ccc2nccn2c1)n1nnc2ncc(-c3cnn(C)c3)nc21 [Savolitinib] + Cc1c2c(nn1C)CSCc1cc(n(C)n1)CSc1cc(c3ccccc3c1)OCCCc1c(C(=O)O)n(C)c3c-2c(Cl)ccc13 [AZD5991] (first compound max 1 µM, 7x7, partner max 1 µM)"
  combination Emax: 0.203

###

# Bliss excess listing for each entry below
test system: PWR-1E (Non-Cancerous); experiment: Bliss excess, mean over the matrix (fraction); higher = more synergy

- MOLECULE: "CCc1c2c(nc3ccc(O)cc13)-c1cc3c(c(=O)n1C2)COC(=O)[C@]3(O)CC [SN-38] + CN(C)CCCOc1ccc(-c2ccc3ncc4c(c3c2)n(C2CCOCC2)c(=O)n4C)cn1 [AZD0156] (first compound max 0.3 µM, 7x7, partner max 1 µM)"
  Bliss excess: 0.0948
- MOLECULE: "Cc1nc(Nc2ncc(C(=O)Nc3c(C)cccc3Cl)s2)cc(N2CCN(CCO)CC2)n1 [Dasatinib] + CC(=O)Nc1cccc(-n2c(=O)n(C3CC3)c(=O)c3c(Nc4ccc(I)cc4F)n(C)c(=O)c(C)c32)c1 [Trametinib] (first compound max 2 µM, 7x7, partner max 1 µM)"
  Bliss excess: 0.0481
- MOLECULE: "CC1(C)CCC(CN2CCN(c3ccc(C(=O)NS(=O)(=O)c4ccc(NCC5CCOCC5)c([N+](=O)[O-])c4)c(Oc4cnc5[nH]ccc5c4)c3)CC2)=C(c2ccc(Cl)cc2)C1 [Venetoclax] + C1CN(CCC1(C(=O)N[C@@H](CCO)C2=CC=C(C=C2)Cl)N)C3=NC=NC4=C3C=CN4 [Capivasertib] (first compound max 1 µM, 7x7, partner max 3 µM)"
  Bliss excess: -0.0161

###

Recorded combination Emax by entry
tested on: C-4-I (Cervical Carcinoma); assay: combination Emax (second highest fraction inhibited in the dose matrix, 72 h); higher = more inhibition; extreme values may be limits of the assay

- COMPOUND: "CC1(C)CCC(CN2CCN(c3ccc(C(=O)NS(=O)(=O)c4ccc(NCC5CCOCC5)c([N+](=O)[O-])c4)c(Oc4cnc5[nH]ccc5c4)c3)CC2)=C(c2ccc(Cl)cc2)C1 [Venetoclax] + C[C@@H]1COCCN1C2=NC(=NC(=C2)C3(CC3)[S@](=N)(=O)C)C4=C5C=CNC5=NC=C4 [AZD6738] (first compound max 1 µM, 7x7, partner max 10 µM)"
  EXPERIMENTAL TARGET: "C-4-I (Cervical Carcinoma)"
  combination Emax: 0.906
- COMPOUND: "COc1nnc2ccc(N3CCC(c4ccc(OCCN5CCN(C)C(=O)[C@H]5C)cc4)CC3)nn12 [AZD5153] + Cc1c2c(nn1C)CSCc1cc(n(C)n1)CSc1cc(c3ccccc3c1)OCCCc1c(C(=O)O)n(C)c3c-2c(Cl)ccc13 [AZD5991] (first compound max 1 µM, 7x7, partner max 1 µM)"
  EXPERIMENTAL TARGET: "C-4-I (Cervical Carcinoma)"
  combination Emax: 0.933
- COMPOUND: "Cc1cc2ncnn2cc1Nc1ncc2c(n1)n(C1CCOCC1)c(=O)n2C [AZD7648] + CCN(CCO)CCCOc1ccc2c(Nc3cc(CC(=O)Nc4cccc(F)c4)[nH]n3)ncnc2c1 [AZD2811] (first compound max 10 µM, 7x7, partner max 1 µM)"
  EXPERIMENTAL TARGET: "C-4-I (Cervical Carcinoma)"
  combination Emax: 0.298
- COMPOUND: "CC(=O)c1c(C)c2cnc(Nc3ccc(N4CCNCC4)cn3)nc2n(C2CCCC2)c1=O [Palbociclib] + Cn1cnc2c(F)c(Nc3ccc(Br)cc3Cl)c(C(=O)NOCCO)cc21 [Selumetinib] (first compound max 10 µM, 7x7, partner max 10 µM)"
  EXPERIMENTAL TARGET: "C-4-I (Cervical Carcinoma)"
  combination Emax: 0.349
- COMPOUND: "NC1(C(=O)N[C@@H](CCO)c2ccc(Cl)cc2)CCN(c2ncnc3[nH]ccc23)CC1 [Capivasertib] + Cn1cnc2c(F)c(Nc3ccc(Br)cc3Cl)c(C(=O)NOCCO)cc21 [Selumetinib] (first compound max 10 µM, 7x7, partner max 10 µM)"
  EXPERIMENTAL TARGET: "C-4-I (Cervical Carcinoma)"
  combination Emax: 0.537
- COMPOUND: "NC1(C(=O)N[C@@H](CCO)c2ccc(Cl)cc2)CCN(c2ncnc3[nH]ccc23)CC1 [Capivasertib] + COc1nnc2ccc(N3CCC(c4ccc(OCCN5CCN(C)C(=O)[C@H]5C)cc4)CC3)nn12 [AZD5153] (first compound max 10 µM, 7x7, partner max 1 µM)"
  EXPERIMENTAL TARGET: "C-4-I (Cervical Carcinoma)"
  combination Emax: 0.749
- COMPOUND: "COc1nnc2ccc(N3CCC(c4ccc(OCCN5CCN(C)C(=O)[C@H]5C)cc4)CC3)nn12 [AZD5153] + C=CCn1c(=O)c2cnc(Nc3ccc(N4CCN(C)CC4)cc3)nc2n1-c1cccc(C(C)(C)O)n1 [AZD1775] (first compound max 1 µM, partner max 1 µM)"
  EXPERIMENTAL TARGET: "C-4-I (Cervical Carcinoma)"
  combination Emax: 0.838

###

tested on: AMO-1 (Plasma Cell Myeloma); assay: combination Emax (second highest fraction inhibited in the dose matrix, 72 h); higher = more inhibition; extreme values may be limits of the assay
Measured combination Emax, listed per entry for reference.

- COMPOUND: "CCc1c2c(nc3ccc(O)cc13)-c1cc3c(c(=O)n1C2)COC(=O)[C@]3(O)CC [SN-38] + O=C(c1cc(Cc2n[nH]c(=O)c3ccccc23)ccc1F)N1CCN(C(=O)C2CC2)CC1 [Olaparib] (first compound max 0.3 µM, 7x7, partner max 10 µM)"
  combination Emax: 0.952
- COMPOUND: "Cc1c2c(nn1C)CSCc1cc(n(C)n1)CSc1cc(c3ccccc3c1)OCCCc1c(C(=O)O)n(C)c3c-2c(Cl)ccc13 [AZD5991] + C=CCn1c(=O)c2cnc(Nc3ccc(N4CCN(C)CC4)cc3)nc2n1-c1cccc(C(C)(C)O)n1 [AZD1775] (first compound max 1 µM, partner max 1 µM)"
  combination Emax: 1
- COMPOUND: "Cc1c2c(nn1C)CSCc1cc(n(C)n1)CSc1cc(c3ccccc3c1)OCCCc1c(C(=O)O)n(C)c3c-2c(Cl)ccc13 [AZD5991] + Cn1cnc2c(F)c(Nc3ccc(Br)cc3Cl)c(C(=O)NOCCO)cc21 [Selumetinib] (first compound max 1 µM, 7x7, partner max 3 µM)"
  combination Emax: 1
- COMPOUND: "CN(CCO)CC[C@H](CSc1ccccc1)Nc1ccc(S(=O)(=O)NC(=O)c2ccc(N3CCC([C@@H](O)c4ccccc4-c4ccc(Cl)cc4)CC3)cc2)cc1S(=O)(=O)C(F)(F)F [AZD4320] + C[C@@H]1COCCN1C2=NC(=NC(=C2)C3(CC3)[S@](=N)(=O)C)C4=C5C=CNC5=NC=C4 [AZD6738] (first compound max 1 µM, 7x7, partner max 10 µM)"
  combination Emax: 0.826
- COMPOUND: "CC1(C)CCC(CN2CCN(c3ccc(C(=O)NS(=O)(=O)c4ccc(NCC5CCOCC5)c([N+](=O)[O-])c4)c(Oc4cnc5[nH]ccc5c4)c3)CC2)=C(c2ccc(Cl)cc2)C1 [Venetoclax] + CCN(CCO)CCCOc1ccc2c(Nc3cc(CC(=O)Nc4cccc(F)c4)[nH]n3)ncnc2c1 [AZD2811] (first compound max 1 µM, 7x7, partner max 1 µM)"
  combination Emax: 0.816
- COMPOUND: "N#Cc1cnc(Nc2cc(NC[C@H]3CNCCO3)c(C(F)(F)F)cn2)cn1 [SRA737] + C=CCn1c(=O)c2cnc(Nc3ccc(N4CCN(C)CC4)cc3)nc2n1-c1cccc(C(C)(C)O)n1 [AZD1775] (first compound max 10 µM, partner max 1 µM)"
  combination Emax: 0.967
- COMPOUND: "COc1nnc2ccc(N3CCC(c4ccc(OCCN5CCN(C)C(=O)[C@H]5C)cc4)CC3)nn12 [AZD5153] + Cn1cnc2c(F)c(Nc3ccc(Br)cc3Cl)c(C(=O)NOCCO)cc21 [Selumetinib] (first compound max 1 µM, 7x7, partner max 10 µM)"
  combination Emax: 0.928
